biological target: human JAK2 (a.a. 828-1132) (Homo sapiens, UniProt O60674); construct: JAK2 (a.a. 828-1132); His tag (N); made in house; host or cells: insect cells (baculovirus); assay: In vitro JAK kinase assay (HTRF, phosphorylation of a biotinylated peptide), JAK2; assay type: biochemical; settings: Table B1
Sequence (O60674 828-1132): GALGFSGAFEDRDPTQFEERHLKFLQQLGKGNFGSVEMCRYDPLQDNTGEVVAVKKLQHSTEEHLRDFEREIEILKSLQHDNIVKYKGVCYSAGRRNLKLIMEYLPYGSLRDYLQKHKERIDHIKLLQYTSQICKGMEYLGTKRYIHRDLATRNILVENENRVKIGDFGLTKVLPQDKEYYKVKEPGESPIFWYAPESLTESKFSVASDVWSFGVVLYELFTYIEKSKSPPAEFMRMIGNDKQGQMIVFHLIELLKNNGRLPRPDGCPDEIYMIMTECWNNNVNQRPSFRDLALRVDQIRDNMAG
Where a name gives a salt, the structure may show the parent alone.
reported_property: IC50 (nM)

P: CN(Cc1ccc2cc1CCc1cncc(c1)Nc1ncc(Cl)c(n1)N2)C(=O)C1CCN(C(=O)c2ccno2)CC1 [Example B336, bis(trifluoroacetate)]
Q: CS(=O)(=O)N1CCN(C(=O)Nc2ccc3cc2CCc2cncc(c2)Nc2ncc(Cl)c(n2)N3)CC1 [Example B318, bis(trifluoroacetate)]
R: CC(C)(C)NS(=O)(=O)c1cc2cc(c1)Nc1nc(ncc1Cl)Nc1cccc(c1)CC2 [Example B16, trifluoroacetate]
S: CN(C)S(=O)(=O)NCCNC(=O)Nc1ccc2cc1CCc1cccc(c1)Nc1ncc(Cl)c(n1)N2 [Example B328, trifluoroacetate]
T: O=C(NCc1ccco1)Nc1ccc2cc1CCc1cncc(c1)Nc1ncc(Cl)c(n1)N2 [Example B134, bis(trifluoroacetate)]
List the 5 molecules shown above, ordered by increasing IC50. # output: labels, in the requested order
T, R, S, P, Q

P: O=C(Nc1ncc(Cl)s1)Nc1ccc2cc1CCc1cccc(c1)Nc1ncc(Cl)c(n1)N2 [Example B252, trifluoroacetate]
Q: CN(C(=O)Nc1ccc2cc1CCc1cncc(c1)Nc1ncc(Cl)c(n1)N2)[C@H]1CCN(Cc2ccccc2)C1
R: Cc1cnc2nc1Nc1cccc(c1)CCc1cccc(c1)N2 [Example B2, trifluoroacetate]
S: CC(C)(C)OC(=O)N1CC[C@@H](NCc2ccc3cc2CCc2cccc(c2)Nc2ncc(Cl)c(n2)N3)C1 [Example B219, bis(trifluoroacetate)]
Hey, can you sort those molecules up there by IC50, smallest first? # output: labels, in the requested order
R, S, P, Q
(R: 8.4 nM, S: 16 nM, P: 26 nM, Q: 368 nM)

P: O=C(Nc1ccc2cc1CCc1cncc(c1)Nc1ncc(Cl)c(n1)N2)N[C@H]1CCN(C(=O)c2ccccc2)C1 [Example B227, bis(trifluoroacetate)]
Q: Cc1ccnc(Nc2ccc3cc2CCc2cccc(c2)Nc2ncc(Cl)c(n2)N3)n1 [Example B276, bis(trifluoroacetate)]
R: Nc1cc2cc(c1)Nc1nc(ncc1Cl)Nc1cccc(c1)CC2 [Example B21, bis(trifluoroacetate)]
S: O=C(Nc1ccc2cc1CCc1cccc(c1)Nc1ncc(Cl)c(n1)N2)NC1CCCNC1 (centres unmarked) [Example B238, bis(trifluoroacetate)]
Hey, can you sort those molecules up there by IC50, smallest first? # output: labels, in the requested order
R, Q, S, P
